The measured values listed here are drawn from PubChem BioAssay AID1963442.

Tested on: MPNST complex spheroid with HUVEC/MSC, growth, % test/control
protocol: Anticancer human tumor MPNST cell line growth inhibition [Asc];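 further: compounds left on spheroids for seven days before reading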
experimental_parameters: second compound 0.03 µM; first compound 1 µM; stronger effect = lower value
Excerpt: Multicellular complex tumor spheroid response to apoptosis pathway targeting inhibitors Alrizomadlin, Pelcitoclax, and Dasminapant in combination with a variety of drugs and investigational agents in selected tumor cell lines […] Compounds. […] If the clinical Cmax for an agent had not been determined, the highest concentration tested was 10 microM. […]
Attribute: viability, T/C
observed_property: viability, T/C (%)

>>> endpoint_result("C=C(F)C(=O)N1CCN(c2nc(OCC3CCCN3C)nc3c2CCN(c2cccc4cccc(Cl)c24)C3)CC1CC#N (centres undefined) + CCN1C(C(=O)NC23CCC(C(=O)O)(CC2)CC3)C(c2cccc(Cl)c2F)C2(C(=O)Nc3cc(Cl)ccc32)C12CCCCC2")
63.1
>>> endpoint_result("CNC(C)C(=O)NC1CN(S(=O)(=O)c2cccc(S(=O)(=O)N3CCC4CCC(C(=O)NC(c5ccccc5)c5ccccc5)N4C(=O)C(NC(=O)C(C)NC)C3)c2)CCC2CCC(C(=O)NC(c3ccccc3)c3ccccc3)N2C1=O (centres undefined) + CCN1C(C(=O)NC23CCC(C(=O)O)(CC2)CC3)C(c2cccc(Cl)c2F)C2(C(=O)Nc3cc(Cl)ccc32)C12CCCCC2")
93
>>> endpoint_result("O=C(c1ccc(F)c(F)c1Nc1ccc(I)cc1F)N1CC(O)([C@@H]2CCCCN2)C1 + CCN1C(C(=O)NC23CCC(C(=O)O)(CC2)CC3)C(c2cccc(Cl)c2F)C2(C(=O)Nc3cc(Cl)ccc32)C12CCCCC2")
18.9
>>> endpoint_result("C#Cc1c(F)ccc2cc(O)cc(-c3ncc4c(N5CC6CCC(C5)N6)nc(OCC56CCCN5CC(F)C6)nc4c3F)c12 (centres undefined) + CCN1C(C(=O)NC23CCC(C(=O)O)(CC2)CC3)C(c2cccc(Cl)c2F)C2(C(=O)Nc3cc(Cl)ccc32)C12CCCCC2")
75.8

---

Attribute: pIC50
System: MPNST complex spheroid with HUVEC/MSC, growth, % test/control
protocol: Anticancer human tumor MPNST cell line growth inhibition [Asc];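 further: compounds left on spheroids for seven days before reading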
experimental_parameters: curve of first compound; second compound 0.0316 µM
Description: Multicellular complex tumor spheroid response to apoptosis pathway targeting inhibitors Alrizomadlin, Pelcitoclax, and Dasminapant in combination with a variety of drugs and investigational agents in selected tumor cell lines […] Compounds. […] If the clinical Cmax for an agent had not been determined, the highest concentration tested was 10 microM. […]
pIC50: −log10 of the molar value.
observed_property: pIC50

>>> endpoint_result("Cc1nc(N2CCC3(CC2)COC(C)C3N)c(CO)nc1Sc1ccnc(N)c1Cl (configuration not stated) + CNC(C)C(=O)NC1CN(S(=O)(=O)c2cccc(S(=O)(=O)N3CCC4CCC(C(=O)NC(c5ccccc5)c5ccccc5)N4C(=O)C(NC(=O)C(C)NC)C3)c2)CCC2CCC(C(=O)NC(c3ccccc3)c3ccccc3)N2C1=O")
6.92
>>> endpoint_result("O=C(c1ccc(F)c(F)c1Nc1ccc(I)cc1F)N1CC(O)([C@@H]2CCCCN2)C1 + CNC(C)C(=O)NC1CN(S(=O)(=O)c2cccc(S(=O)(=O)N3CCC4CCC(C(=O)NC(c5ccccc5)c5ccccc5)N4C(=O)C(NC(=O)C(C)NC)C3)c2)CCC2CCC(C(=O)NC(c3ccccc3)c3ccccc3)N2C1=O")
6.07
